Molecular target: T1, human FXI (human coagulation Factor XI) (human, UniProt P03951 19-625)
T1 construct: Bought protein; Biotin-labeled form (HCXI-0150-B) was used in the hybridoma screen; also called FXI protein; FXI antigen
Experiment: BLI (Octet Fortebio), antibody on AHC (anti-human-Fc) sensor, FXI in solution
Provide the recorded pKd for the entries that follow.
# pKd: negative log10 of molar concentration; output just the value

Req: Which measured pKd value corresponds to humanized antibody 36G9.10-hz93 (antibody, human IgG1, kappa, N297A, V domains shown) VH: EVQLVQSGAEVKKPGATVKISCKASGFNIKDTYIHWVQQAPGKGLEWIGRIDPANDNTKYDPKFQGRVTITADTSTNTAYMELSSLRSEDTAVYYCAQDYDGFAMDYWGQGTLVTVSS VL: DIQMTQSPSSLSASVGDRVTITCKASQDINKYITWFQQKPGKAPKLLIHYTSTLQPGVPSRFSGSGSGRDYTLTISSLQPEDFATYYCLQYDYLLTFGGGTKVEIKR ?
Resp: 11.06

Req: Next binder up: BAY-1213790 (antibody, V domains shown) VH: EVQLLESGGGLVQPGGSLRLSCAASGFTFSQYGMDWVRQAPGKGLEWVSGIGPSGGSTVYADSVKGRFTISRDNSKNTLYLQMNSLRAEDTAVYYCTRGGPYYYYGMDVWGQGTTVTVSS VL: DIQMTQSPSSLSASVGDRVTITCQASQDISNYLNWYQQKPGKAPKLLIYDASNLETGVPSRFSGSGSGTDFTFTISSLQPEDIATYYCQQADSFPVTFGGGTKVEIKR
Resp: 9.43

Every entry's value here was drawn from patent US20220162338A1.
